Data provenance is the RNAGym collection of RNA variant scans (doi:10.1021/acssynbio.7b00057).

Parameter aptazyme ON/OFF ratio: see the listing below.
B1: Pistol ribozyme (parent)
chain: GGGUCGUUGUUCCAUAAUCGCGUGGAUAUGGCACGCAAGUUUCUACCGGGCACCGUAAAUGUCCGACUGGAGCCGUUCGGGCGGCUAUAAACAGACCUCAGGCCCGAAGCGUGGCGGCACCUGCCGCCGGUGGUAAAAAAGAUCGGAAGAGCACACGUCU

# Variants of: B1
# assay_method_text: aptazyme ON/OFF ratio, guanine; higher = stronger switching; co-transcriptional cleavage with and without guanine
Format: numeric value only, no unit, no commentary.

Briefly, aptazyme ON/OFF ratio measured for U7A U8C G9U U11C C12G C13U : 1.18

Briefly, aptazyme ON/OFF ratio measured for U7A U8C G9A U10C C12A C13G : 1.18

Next variant, aptazyme ON/OFF ratio to be filled in.
Briefly, aptazyme ON/OFF ratio measured for U7C U8C G9U U10G U11C C12A : 1.17
